# Test system: HeLa
# assay-text: Antiproliferative activity against human HeLa cells assessed as reduction in cell viability after 24 hrs by MTT assay
# Format: functional, cell-based
pIC50: −log10 of the molar value.
measured-parameter: pIC50

| molecule | measured-parameter | experimental-value |
| --- | --- | --- |
| CC(C)=CC[C@@H](OC(=O)/C=C\C(=O)c1ccc(F)cc1)C1=CC(=O)c2c(O)ccc(O)c2C1=O | pIC50 | 5.10 |
| CC(C)=CC[C@@H](OC(=O)/C=C\C(=O)c1cc(Cl)ccc1C)C1=CC(=O)c2c(O)ccc(O)c2C1=O | pIC50 | 5.03 |
| CC(C)=CC[C@@H](OC(=O)/C=C\C(=O)c1ccccc1)C1=CC(=O)c2c(O)ccc(O)c2C1=O | pIC50 | 4.76 |
| CN(C)C/C=C/C(=O)Nc1cc2c(Nc3ccc(F)c(Cl)c3)ncnc2cc1O[C@H]1CCOC1 [AFATINIB] | pIC50 | 5.19 |
| CC(C)=CC[C@@H](OC(=O)/C=C\C(=O)c1ccc(C)c(C)c1)C1=CC(=O)c2c(O)ccc(O)c2C1=O | pIC50 | 4.99 |

1. CC(C)=CC[C@@H](OC(=O)/C=C\C(=O)c1ccc(C)c(F)c1)C1=CC(=O)c2c(O)ccc(O)c2C1=O
2. CC(C)=CC[C@@H](OC(=O)/C=C\C(=O)c1cc(F)ccc1C)C1=CC(=O)c2c(O)ccc(O)c2C1=O
Smaller pIC50 value? Options are 1 and 2 Your answer should be the label of the entry you select.
2
(2: 4.85, 1: 5.08)

====

Here, each record is paired with measured CC50 at 24 h data.
# assay-text: Cytotoxicity against human LO2 cells assessed as reduction in cell viability after 24 hrs by MTT assay
# Format: cell-based, L02
Provide the reading as a plain figure in µM.

| compound | CC50 at 24 h / µM |
| --- | --- |
| CC(C)=CC[C@@H](OC(=O)/C=C\C(=O)c1cc(Cl)ccc1C)C1=CC(=O)c2c(O)ccc(O)c2C1=O | 83.3 |
| CC(C)=CC[C@@H](OC(=O)/C=C\C(=O)c1cc(C)ccc1C)C1=CC(=O)c2c(O)ccc(O)c2C1=O | 78.1 |
| CC(C)=CC[C@@H](OC(=O)/C=C\C(=O)c1ccc(F)cc1)C1=CC(=O)c2c(O)ccc(O)c2C1=O | 89.2 |
| CC(C)=CC[C@@H](O)C1=CC(=O)c2c(O)ccc(O)c2C1=O [SHIKONIN] | 12.2 |
| CC(C)=CC[C@@H](OC(=O)/C=C\C(=O)c1ccc(C)c(C)c1)C1=CC(=O)c2c(O)ccc(O)c2C1=O | 88.4 |

// query CC50 at 24 h value for entry CN(C)C/C=C/C(=O)Nc1cc2c(Nc3ccc(F)c(Cl)c3)ncnc2cc1O[C@H]1CCOC1 [AFATINIB]
25.3

====

# Test system: HeLa
# assay-text: Antiproliferative activity against human HeLa cells assessed as reduction in cell viability after 24 hrs by MTT assay
# Assay type: functional, cell-based
pIC50: −log10 of the molar value.
measured-parameter: pIC50

Use these answered entries as a reference point.
| smiles-repr | pIC50 |
| --- | --- |
| CC(C)=CC[C@@H](OC(=O)/C=C\C(=O)c1ccc(C)cc1)C1=CC(=O)c2c(O)ccc(O)c2C1=O | 5.05 |
| CC(C)=CC[C@@H](OC(=O)/C=C\C(=O)c1ccc(C)cc1C)C1=CC(=O)c2c(O)ccc(O)c2C1=O | 4.73 |

a. CC(C)=CC[C@@H](OC(=O)/C=C\C(=O)c1ccc(C)c(Br)c1)C1=CC(=O)c2c(O)ccc(O)c2C1=O
b. CC(C)=CC[C@@H](O)C1=CC(=O)c2c(O)ccc(O)c2C1=O
Larger number for pIC50: a , or b ? Your answer should be the label of the entry you select.
b

====

# System: HeLa
# assay-text: Antiproliferative activity against human HeLa cells assessed as reduction in cell viability after 24 hrs by MTT assay
# Assay type: functional, cell-based
measured-parameter: IC50 (µM)

| smiles-repr | measured-parameter | experimental-value |
| --- | --- | --- |
| CC(C)=CC[C@@H](OC(=O)/C=C\C(=O)c1ccc(C)cc1F)C1=CC(=O)c2c(O)ccc(O)c2C1=O | IC50 | 15.1 |

P. CC(C)=CC[C@@H](OC(=O)/C=C\C(=O)c1ccc(C)cc1Cl)C1=CC(=O)c2c(O)ccc(O)c2C1=O
Q. CCc1ccc(C(=O)/C=C\C(=O)O[C@H](CC=C(C)C)C2=CC(=O)c3c(O)ccc(O)c3C2=O)cc1
Larger number for IC50: P , or Q ? Your answer should be the label of the entry you select.
Q
(Q: 15.2 µM, P: 10.1 µM)

====

# System: A549
# assay-text: Antiproliferative activity against human A549 cells assessed as reduction in cell viability after 24 hrs by MTT assay
# Assay type: functional, cell-based
# conditions-used: A549, 24 h
pIC50: −log10 of the molar value.
measured-parameter: pIC50

Use these answered entries as a reference point.
| smiles-repr | pIC50 |
| --- | --- |
| CC(C)=CC[C@@H](OC(=O)/C=C\C(=O)c1ccc(Cl)cc1)C1=CC(=O)c2c(O)ccc(O)c2C1=O | 5.07 |
| CC(C)=CC[C@@H](OC(=O)/C=C\C(=O)c1ccc(C)cc1C)C1=CC(=O)c2c(O)ccc(O)c2C1=O | 4.99 |
| CC(C)=CC[C@@H](OC(=O)/C=C\C(=O)c1ccc(Br)cc1)C1=CC(=O)c2c(O)ccc(O)c2C1=O | 5.04 |

a. CC(C)=CC[C@@H](OC(=O)/C=C\C(=O)c1cc(F)ccc1C)C1=CC(=O)c2c(O)ccc(O)c2C1=O
b. CC(C)=CC[C@@H](OC(=O)/C=C\C(=O)c1ccc(F)cc1)C1=CC(=O)c2c(O)ccc(O)c2C1=O
Larger number for pIC50: a , or b ? Your answer should be the label of the entry you select.
b
(b: 5.36, a: 4.87)

====

# System: A549
# assay-text: Antiproliferative activity against human A549 cells assessed as reduction in cell viability after 24 hrs by MTT assay
# Format: functional, cell-based
# conditions-used: A549, 24 h
measured-parameter: IC50 (µM)

Use these answered entries as a reference point.
| smiles-repr | reading-unit | IC50 |
| --- | --- | --- |
| CC(C)=CC[C@@H](OC(=O)/C=C\C(=O)c1ccccc1)C1=CC(=O)c2c(O)ccc(O)c2C1=O | µM | 7.51 |
| CC(C)=CC[C@@H](O)C1=CC(=O)c2c(O)ccc(O)c2C1=O | µM | 6.13 |

a. CC(C)=CC[C@@H](OC(=O)/C=C\C(=O)c1ccc(C)c(C)c1)C1=CC(=O)c2c(O)ccc(O)c2C1=O
b. CC(C)=CC[C@@H](OC(=O)/C=C\C(=O)c1cc(Cl)ccc1C)C1=CC(=O)c2c(O)ccc(O)c2C1=O
c. CC(C)=CC[C@@H](OC(=O)/C=C\C(=O)c1ccc(C)cc1Cl)C1=CC(=O)c2c(O)ccc(O)c2C1=O
List the 3 entries from lowest IC50 to highest IC50 value. List the labels according to the requested ordering.
c, a, b

====

Here, each record is paired with measured CC50 at 24 h data.
# assay-text: Cytotoxicity against human LO2 cells assessed as reduction in cell viability after 24 hrs by MTT assay
# Assay type: cell-based, L02
Provide the reading as a plain figure in µM.

| smiles-repr | CC50 at 24 h, µM |
| --- | --- |
| CCc1ccc(C(=O)/C=C\C(=O)O[C@H](CC=C(C)C)C2=CC(=O)c3c(O)ccc(O)c3C2=O)cc1 | 92.4 |

Kindly review the next molecule as well.
// query CC50 at 24 h value for entry CC(C)=CC[C@@H](OC(=O)/C=C\C(=O)c1ccc(C)cc1)C1=CC(=O)c2c(O)ccc(O)c2C1=O
64.2

====

# System: MCF7
# assay-text: Antiproliferative activity against human MCF7 cells assessed as reduction in cell viability after 24 hrs by MTT assay
# Type: functional, cell-based
# conditions-used: MCF7, 24 h
pIC50: −log10 of the molar value.
measured-parameter: pIC50

Use these answered entries as a reference point.
| compound | experimental-value |
| --- | --- |
| CC(C)=CC[C@@H](OC(=O)/C=C\C(=O)c1ccc(C)cc1C)C1=CC(=O)c2c(O)ccc(O)c2C1=O | 5.10 |
| CCc1ccc(C(=O)/C=C\C(=O)O[C@H](CC=C(C)C)C2=CC(=O)c3c(O)ccc(O)c3C2=O)cc1 | 5.03 |
| CC(C)=CC[C@@H](OC(=O)/C=C\C(=O)c1ccc(Br)cc1)C1=CC(=O)c2c(O)ccc(O)c2C1=O | 5.03 |
| CC(C)=CC[C@@H](OC(=O)/C=C\C(=O)c1ccc(C)c(Br)c1)C1=CC(=O)c2c(O)ccc(O)c2C1=O | 4.85 |
| CC(C)=CC[C@@H](OC(=O)/C=C\C(=O)c1ccc(C)c(F)c1)C1=CC(=O)c2c(O)ccc(O)c2C1=O | 5.11 |

I. CC(C)=CC[C@@H](OC(=O)/C=C\C(=O)c1ccc(C)cc1F)C1=CC(=O)c2c(O)ccc(O)c2C1=O
II. CC(C)=CC[C@@H](OC(=O)/C=C\C(=O)c1ccc(C)c(C)c1)C1=CC(=O)c2c(O)ccc(O)c2C1=O
Smaller pIC50 value? Options are I and II Your answer should be the label of the entry you select.
II
(II: 4.84, I: 5.18)

1. CC(C)=CC[C@@H](OC(=O)/C=C\C(=O)c1cc(Cl)ccc1C)C1=CC(=O)c2c(O)ccc(O)c2C1=O
2. CC(C)=CC[C@@H](OC(=O)/C=C\C(=O)c1cc(F)ccc1C)C1=CC(=O)c2c(O)ccc(O)c2C1=O
3. CC(C)=CC[C@@H](OC(=O)/C=C\C(=O)c1cc(C)ccc1C)C1=CC(=O)c2c(O)ccc(O)c2C1=O
List the 3 entries from lowest pIC50 to highest pIC50 value. List the labels according to the requested ordering.
1, 2, 3
(1: 4.73, 2: 5.00, 3: 5.28)

I. CC(C)=CC[C@@H](OC(=O)/C=C\C(=O)c1ccc(C)cc1Cl)C1=CC(=O)c2c(O)ccc(O)c2C1=O
II. CC(C)=CC[C@@H](OC(=O)/C=C\C(=O)c1ccccc1)C1=CC(=O)c2c(O)ccc(O)c2C1=O
Smaller pIC50 value? Options are I and II Your answer should be the label of the entry you select.
II
